Substrate: BHET
Conditions: 120 h
test-readout: plate clearing

INSERT INTO assay_data (protein, test_readout, assay_result) VALUES
  ('unnamed (protein) MNKSILEKMVVGTSALLFSLSAFSFTPDPTPDPDPEPEPCQGECDFTRGPAPTSSYLEASSGPYSVDTVGVSRSVSGFGGGTIYYPTSTSGTMGAIAIVPGFLAGESSISWWGPRLASHGFVVITIATNSTFDQPASRSTQLSRALDYVVSQSNSNSSPISGKVDSTRLGAMGWSMGGGGALRLASGNRLAAAIPLAPWNTGSNSFNQIDTPTLIFACENDTTARVGTHASPFYNRIPASTDKAYLEINNGSHSCANGGGSNGGLLGKYGVSWMKRFIDEDTRYSQFLCGPNHEANSAISEYRETCNY', 'plate clearing', 'not clears the plate'),
  ('unnamed (protein) MIEIRSSYKSKKTNCKRSVMPSMITKKAALPFVISSALLFSASAFAITPPSDPDPDPTPCEGDCDFTRGPDPTESMLEARSGPFNVDTVNVSSRVSGFGGGTIHYPTNTSGQMGAIVVAPGFVSPESSIGWWGPQLASHGFIVMTIATNSLYDQPDSRRDQLEAGLDYLISQSNSSGSDISGMVDSSRLGAMGWSMGGGGALQLAADGRLSAAIPLAPYNSSRNDFDDITTPTLIFACENDAVAAVRSHASPFYNDIPGSTDKAFVEINGGAHSCANGGNTNNSLLSKYGVSWMKLHLDQDQRYSQFLCGPNHESDRSISEYRGTCPY', 'plate clearing', 'not clears the plate');

Source: the PETadex activity labels
